system: Colon cancer organoid; experiment: Targeting of F14 CAF-induced therapy resistance in O23 CRC organoid-stroma co-culture. Cell viability is reported with SN-38.; format: functional, Homo sapiens; conditions: Homo sapiens, Concentration 10 uM; read-out: Cell Viability
Attribute Measured: viability at 10 µM (%)
Write it as a number; the unit % goes unstated.

>>> numeric_readout("CC(=O)Nc1c(C(C)=O)c(=O)n(C)c2nc(-c3ccc(Cl)cc3Cl)c(-c3ccc(Cl)cc3)cc12")
81.5
>>> numeric_readout("COc1cccc2c1c(O)c(C(=O)N(C)c1ccc(C(F)(F)F)cc1)c(=O)n2C")
83
>>> numeric_readout("CC(=O)N1CCC(c2ccc(C(=O)NC(=N)N)cc2C(F)(F)F)CC1")
106

I'd like to know its viability at 10 µM. The compound in question is `O=C([C@@H](Cc1cccc(C(F)(F)F)c1)NS(=O)(=O)c1cc(F)c2c(c1)CCNC2)N1CCCC1` 60.3

What about this compound? `Cc1cc(NC(=O)c2cccc(S(F)(F)(F)(F)F)c2)cc(-n2ccn3nc(-c4cccnc4)cc23)c1` 61.2

----------
system: Colon cancer organoid; test: Targeting of F14 CAF-induced therapy resistance in O14 CRC organoid-stroma co-culture. Cell viability is reported without Gefitinib.; format: functional, Homo sapiens; conditions: Homo sapiens, Concentration 10 uM; read-out: Cell Viability
Attribute Measured: viability at 10 µM (%)
Write it as a number; the unit % goes unstated.

// below: answered molecules
>>> numeric_readout("Cc1noc([C@H]2C[C@@H](c3ccc(C(F)(F)F)cc3)CN(C(=O)N3CCS(=O)(=O)C3)C2)n1")
99.7
>>> numeric_readout("Cc1cc2c(-c3ccco3)cnc(N[C@@H]3CCN(C)C[C@H]3C(=O)NC3CCCCC3)c2[nH]c1=O")
84.8

I'd like to know its viability at 10 µM. The molecule in question is `CN(C)C(=O)c1sc2nc(N3CCC(S(C)(=O)=O)CC3)cc(C(F)(F)F)c2c1N` 108

----------
system: Colon cancer organoid; assay: Targeting of F14 CAF-induced therapy resistance in O14 CRC organoid-stroma co-culture. Cell viability is reported without Gefitinib.; assay type: functional, Homo sapiens; conditions: Homo sapiens, Concentration 10 uM; read-out: Cell Viability
Listed compounds paired with reported viability at 10 µM
Please give the number followed by its unit.

>>> result("Cc1nnc2c3ccccc3c(N[C@@H](C)[C@H](c3ccccc3)N(C)C)nn12")
"69.8%"
>>> result("C[C@H](c1ccnc(Nc2nc3ccc(-c4cc(N(C)C)ncn4)cc3[nH]2)c1)N1CCN(C(=O)CC(F)(F)F)CC1 [BAY-985]")
"163%"
>>> result("CCn1cc(-c2cccc(C(F)(F)F)c2)c2sc(C(=N)NC3CCS(=O)(=O)CC3)cc2c1=O")
"132%"
>>> result("COCc1nc2cnc3cc(-c4c(C)noc4C)c(OC[C@H]4CCNC4)cc3c2n1[C@H](C)c1ccccc1 [GSK778]")
"40%"
>>> result("N#CN1CC[C@H](C(=O)Nc2nc3c(s2)CN(C(=O)CN=[N+]=[N-])CC3)C1 [8RK64]")
"105%"

Request - read-out viability at 10 µM | tested on Colon cancer organoid | compound `Cc1cccc(-c2cnc3occ(-c4ccc(C(=O)O)c(C5CCCC5)c4)c3c2)c1` 112%

What about this compound? `Cn1cc(-c2ccc3occ(-c4ccccc4-c4ccccc4)c3n2)cn1` 115%

What about this compound? N#CC1(c2ccccn2)CCN(Cc2cc(C(=O)O)c(=O)n3ccccc23)CC1 [MSD-M1PAM] 84.9%

What about this compound? `CC(C)C(=O)Nc1n[nH]c2cc(-c3cccc(NS(=O)(=O)C4CC4)c3)ccc12` 129%

What about this compound? `O=C(NCCCN1CCOC1=O)c1cnc(NCc2cc(Br)ccc2Br)nc1NC1CCCC1` 126%

What about this compound? `CN(C)C(=O)N1CC[C@H](NC2=Nc3cc(F)ccc3N(CC(F)F)c3ccc(Cl)cc32)C1` 87.4%

What about this compound? `CC(=O)c1cc(-c2cc(C(=O)NC3CC3)ccc2C)c2ncccn12` 83.8%

What about this compound? Cn1c(C2(NC(=O)c3ccc4c(C5CCCC5)c(-c5ncc(Br)cn5)n(C)c4c3)CCC2)nc2ccc(/C=C/C(=O)O)cc21 [DELEOBUVIR] 126%

----------
system: Colon cancer organoid; assay: Targeting of F14 CAF-induced therapy resistance in O23 CRC organoid-stroma co-culture. Cell viability is reported with SN-38.; format: functional, Homo sapiens; settings: Homo sapiens, Concentration 10 uM; read-out: Cell Viability
Kindly note that classification relies on viability at 10 µM with these boundaries: lower (below 60%), middle (60% to below 80%), upper (80% or more)

Illustrative cases are given below, each with its answer.
>>> assigned_label("C[C@@H](c1cccc(C#N)c1)n1cc(Cl)cc(C(N)=O)c1=N")
"middle"
>>> assigned_label("CCCOc1ccn2c(C(C)=O)cc(-c3ccccc3S(C)(=O)=O)c2c1")
"upper"
>>> assigned_label("CO[C@H]1CC[C@H](CNc2ccc(S(=O)(=O)NC(=O)c3ccc(N4CCN(CC5=C(c6ccc(Cl)cc6)CC(C)(C)CC5)CC4)cc3Oc3cnc4[nH]ccc4c3)cc2[N+](=O)[O-])CC1 [A-1211212]")
"lower"
>>> assigned_label("CC(=O)Nc1cccc(-n2c(=O)n(C3CC3)c(=O)c3c(Nc4ccc(I)cc4F)n(C)c(=O)c(C)c32)c1 [TRAMETINIB]")
"lower"

The entry to classify is `Cc1c(Nc2ccc(S(=O)(=O)N3CCN(C)CC3)cc2F)nc2ccc(Nc3cnn(C4CC4)c3)cn2c1=O` ; which class holds it? middle

What about this compound? COc1ccc2c(O[C@@H]3C[C@H]4C(=O)N[C@]5(C(=O)O)CC5/C=C\CCCCC[C@H](NC(=O)OC5CCCC5)C(=O)N4C3)cc(-c3csc(NC(=O)C(C)C)n3)nc2c1C (some centres undefined) [BI 1230] middle

----------
Listed compounds paired with reported viability at 10 µM
test system: Colon cancer organoid; test: Targeting of F14 CAF-induced therapy resistance in O23 CRC organoid-stroma co-culture. Cell viability is reported without Gefitinib.; format: functional, Homo sapiens; conditions: Homo sapiens, Concentration 10 uM; read-out: Cell Viability

Request - read-out viability at 10 µM | tested on Colon cancer organoid | compound CCNC(=O)c1cc2c(N3CCOCC3C)ccnc2[nH]1 (centres undefined) 156%

What about this compound? CCC(=O)N[C@H]1CC[C@@H](C(=O)N(C)c2ccc(-c3nc4ccccc4o3)cc2)C1 [BI 99179] 168%

What about this compound? CC(=O)Nc1c(F)cc(C(=O)N[C@H]2CC[C@H](O)CC2)cc1O[C@@H](C)c1ccccc1 [GSK046] 100%

What about this compound? C[C@@]1(Cc2ccc(C#N)cc2)C(=O)N(c2cc(Cl)cc(Cl)c2)c2ncc(C(=O)NC3(c4nc(C5CCC5)no4)CC3)n21 [BI 9446] 80.2%

----------
Listed molecules paired with reported viability at 10 µM
tested on: Colon cancer organoid; experiment: Targeting of F14 CAF-induced therapy resistance in O23 CRC organoid-stroma co-culture. Cell viability is reported with SN-38.; type: functional, Homo sapiens; conditions: Homo sapiens, Concentration 10 uM; read-out: Cell Viability
Please give the number followed by its unit.

>>> result("Cc1c(C(=O)O)cc(-c2ccc(C3CCNCC3)cc2)c2ccc(-c3ccc(C(F)(F)F)cc3)cc12")
"76.8%"
>>> result("O=C(NCCN1CCOCC1)c1ccc2c(c1)C(=O)c1ccc(Nc3ccc(F)c(NC(=O)c4ccccc4)c3)cc1CC2")
"54%"
>>> result("CCOC(=O)CCNc1cc(N2CCc3ccccc3CC2)nc(-c2ccccn2)n1")
"121%"
>>> result("CC(C)(O)c1cncc(-c2nc3ccc(F)cc3n2C2CC2)c1")
"94.9%"

I'd like to know its viability at 10 µM. The molecule in question is `COc1cc(N(C)c2ccnc3ccc(C(F)(F)F)cc23)cc(OC)c1OC` 64.7%

What about this molecule? `CN(C)C(=O)/C(C#N)=C/c1ccc(-c2nc3cnc4c(ccn4C)c3n2C2CCCCC2)o1` 46.5%

What about this molecule? `C[C@H]1CCCN1Cc1nc2cc(NC(=O)c3ccc4cnccc4c3)ccc2[nH]1` 43.3%

What about this molecule? `COc1cc2c(cc1-c1c(C)noc1C)ncc1[nH]c(=O)n([C@H](C)c3ccccn3)c12` 91.5%

What about this molecule? Cc1sc2c(c1C)C(c1ccc(Cl)cc1)=N[C@@H](CC(=O)NCCCCCCCCNC(=O)COc1cccc3c1C(=O)N(C1CCC(=O)NC1=O)C3=O)c1nnc(C)n1-2 (stereo not given in full) 4.21%

What about this molecule? `CC1=C(C)C(=O)C(C(C)(C)CC(=O)N(CCCCSC[C@H]2O[C@@H](n3cnc4c(N)ncnc43)[C@@H]3OC(C)(C)O[C@@H]32)Cc2cccc(-c3ccc(Cl)cc3)c2)=C(C)C1=O` 9.16%

What about this molecule? O=C(N[C@H]1CCCCC/C=C\C2C[C@@]2(C(=O)O)NC(=O)[C@@H]2C[C@@H](Oc3ccncc3)CN2C1=O)OC1CCCC1 (stereo not given in full) 89.7%

What about this molecule? FC(F)(F)c1ccc2c(c1)nc(-c1cccnc1)n2C1CC1 [MSD-CYP11B2-Negative-control] 92.9%

What about this molecule? CCn1c(-c2nc3cc(C(=O)N4CCCC(N)C4)ccc3n2C)cc2ccccc21 (stereo not given) 79.2%

What about this molecule? `CN(C)C(=O)c1sc2nc(N3CCC(S(C)(=O)=O)CC3)cc(C(F)(F)F)c2c1N` 79.7%

What about this molecule? `CC(C)(C#Cc1ccc(NC(=O)COc2ccccc2C(=O)c2ccccc2)c(Cl)c1)C(=O)O` 82.7%
